- SYSTEM_TESTED: UniProt:P07947
- Sequence (P07947 whole entry): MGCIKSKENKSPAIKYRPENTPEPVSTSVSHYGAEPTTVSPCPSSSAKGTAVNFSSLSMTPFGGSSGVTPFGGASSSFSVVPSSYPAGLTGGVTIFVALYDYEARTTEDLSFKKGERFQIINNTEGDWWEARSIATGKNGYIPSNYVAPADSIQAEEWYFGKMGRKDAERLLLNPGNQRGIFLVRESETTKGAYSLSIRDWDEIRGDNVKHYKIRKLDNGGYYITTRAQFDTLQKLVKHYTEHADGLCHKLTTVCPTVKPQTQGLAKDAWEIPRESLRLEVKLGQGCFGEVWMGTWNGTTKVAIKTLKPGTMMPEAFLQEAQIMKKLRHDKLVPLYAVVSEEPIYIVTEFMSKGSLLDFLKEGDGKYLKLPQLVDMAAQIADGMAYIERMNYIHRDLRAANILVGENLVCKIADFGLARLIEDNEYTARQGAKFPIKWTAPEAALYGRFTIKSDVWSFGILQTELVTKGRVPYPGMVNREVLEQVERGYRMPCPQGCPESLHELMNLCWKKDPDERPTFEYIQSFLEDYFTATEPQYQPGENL
pIC50: −log10 of the molar value.
Criterion: pIC50 meeting or surpassing 9. Met: T. Not met: F.

[[record]]
compound = "O=C(Nc1ccc(Cl)c(C(=O)Nc2cnc(Nc3ccccc3)nc2)c1)c1cccc(C(F)(F)F)c1 [drawing 234]"
class_assignment = "F"

[[record]]
compound = "Cc1ccc(Nc2nccc3ccccc23)cc1C(=O)Nc1cnc(Nc2cccc(OCCN3CCCC3)c2)nc1 [drawing 236]"
class_assignment = "F"

[[record]]
compound = "O=C(Nc1cccc(C(F)(F)F)c1)Nc1ccc(Cl)c(C(=O)Nc2cnc(Nc3ccc(OCCN4CCCC4)cc3)nc2)c1 [drawing 237]"
class_assignment = "F"

[[record]]
compound = "O=C(Nc1ccc(Cl)c(C(=O)Nc2cnc(Nc3cccc(OCCN4CCCC4)c3)nc2)c1)c1cccc(C(F)(F)F)c1 [drawing 225]"
class_assignment = "T"

[[record]]
compound = "O=C(Nc1ccc(Cl)c(C(=O)Nc2cnc(Nc3ccc(OCCN4CCCC4)cc3)nc2)c1)c1cccc(C(F)(F)F)c1 [drawing 230]"
class_assignment = "T"


* * *

IC50 overview
- SYSTEM_TESTED: human c-Src (Homo sapiens)
- Sequence (P12931 whole entry): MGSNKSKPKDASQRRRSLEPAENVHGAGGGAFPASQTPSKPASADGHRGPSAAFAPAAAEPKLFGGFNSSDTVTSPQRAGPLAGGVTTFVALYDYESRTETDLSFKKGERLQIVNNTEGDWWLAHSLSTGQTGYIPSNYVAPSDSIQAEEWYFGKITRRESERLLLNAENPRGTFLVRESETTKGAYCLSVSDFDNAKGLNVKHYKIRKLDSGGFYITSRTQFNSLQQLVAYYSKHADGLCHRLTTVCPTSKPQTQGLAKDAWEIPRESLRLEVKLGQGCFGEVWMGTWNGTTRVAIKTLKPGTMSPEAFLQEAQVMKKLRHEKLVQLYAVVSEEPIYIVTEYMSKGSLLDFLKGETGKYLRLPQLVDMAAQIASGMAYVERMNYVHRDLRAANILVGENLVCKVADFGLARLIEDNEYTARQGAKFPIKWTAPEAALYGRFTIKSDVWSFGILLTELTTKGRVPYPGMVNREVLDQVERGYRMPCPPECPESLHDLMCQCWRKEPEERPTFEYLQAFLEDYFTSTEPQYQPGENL
RECORDED_METRIC: IC50 (nM)

[[record]]
compound = "CN1CCN(C(=O)c2ccc(Nc3ncc(NC(=O)c4cc(NC(=O)c5cccc(C(F)(F)F)c5)ccc4Cl)cn3)cc2)CC1"
readout_number = 1.7

[[record]]
compound = "O=C(Nc1ccc(Cl)c(NC(=O)c2cnc(Nc3ccc(OCCN4CCCC4)cc3)nc2)c1)c1cccc(C(F)(F)F)c1"
readout_number = 50

[[record]]
compound = "Cc1ccc(NC(=O)c2cccc(C(F)(F)F)c2)cc1C(=O)Nc1cnc(Nc2ccc(OCCN3CCCC3)cc2)nc1 [drawing 170]"
readout_number = 3.3

[[record]]
compound = "O=C(Nc1ccc(Cl)c(C(=O)Nc2cnc(Nc3ccc(S(=O)(=O)C4CCNCC4)cc3)nc2)c1)c1cc(C(F)(F)F)ccc1F"
readout_number = 4.2


* * *

pIC50: −log10 of the molar value.
Lab note: pIC50 readings collected with VEGFR2 (Homo sapiens) for the following compounds.
Sequence (P35968 20-1356, species assumed): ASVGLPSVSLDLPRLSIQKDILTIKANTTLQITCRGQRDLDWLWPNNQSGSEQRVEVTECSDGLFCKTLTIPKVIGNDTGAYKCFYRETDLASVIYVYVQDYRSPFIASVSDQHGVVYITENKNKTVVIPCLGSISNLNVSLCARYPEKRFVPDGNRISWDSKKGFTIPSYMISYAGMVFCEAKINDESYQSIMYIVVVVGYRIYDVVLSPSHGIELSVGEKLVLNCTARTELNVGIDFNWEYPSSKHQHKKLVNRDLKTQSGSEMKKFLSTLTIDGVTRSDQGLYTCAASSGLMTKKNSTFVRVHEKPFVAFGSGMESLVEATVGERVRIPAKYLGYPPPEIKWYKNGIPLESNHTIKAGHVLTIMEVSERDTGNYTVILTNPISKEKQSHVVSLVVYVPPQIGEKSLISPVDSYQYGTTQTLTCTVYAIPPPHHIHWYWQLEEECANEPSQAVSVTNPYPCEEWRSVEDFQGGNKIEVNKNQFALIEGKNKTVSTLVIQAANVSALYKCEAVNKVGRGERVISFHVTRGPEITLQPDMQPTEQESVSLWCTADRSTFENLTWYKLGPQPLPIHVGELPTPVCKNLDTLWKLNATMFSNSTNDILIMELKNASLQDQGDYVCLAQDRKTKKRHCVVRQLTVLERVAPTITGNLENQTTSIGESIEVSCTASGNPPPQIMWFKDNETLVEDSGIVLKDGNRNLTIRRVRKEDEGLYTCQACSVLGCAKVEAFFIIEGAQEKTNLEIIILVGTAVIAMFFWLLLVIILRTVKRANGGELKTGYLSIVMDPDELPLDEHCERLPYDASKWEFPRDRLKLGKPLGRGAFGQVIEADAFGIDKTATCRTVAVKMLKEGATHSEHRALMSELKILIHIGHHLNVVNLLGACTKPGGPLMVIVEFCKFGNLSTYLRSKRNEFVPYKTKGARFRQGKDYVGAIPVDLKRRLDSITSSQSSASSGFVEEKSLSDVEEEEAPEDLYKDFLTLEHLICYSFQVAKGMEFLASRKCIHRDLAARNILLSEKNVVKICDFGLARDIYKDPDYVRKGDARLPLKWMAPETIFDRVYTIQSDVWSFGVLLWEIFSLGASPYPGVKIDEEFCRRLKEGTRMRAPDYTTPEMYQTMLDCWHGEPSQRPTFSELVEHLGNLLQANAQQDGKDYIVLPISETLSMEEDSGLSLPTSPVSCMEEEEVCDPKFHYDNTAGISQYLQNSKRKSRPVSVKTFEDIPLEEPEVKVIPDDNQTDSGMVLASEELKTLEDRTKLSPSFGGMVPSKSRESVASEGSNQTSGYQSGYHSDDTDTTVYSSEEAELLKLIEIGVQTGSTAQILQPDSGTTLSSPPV
RECORDED_METRIC: pIC50

[[record]]
compound = "Cc1cccc(NC(=O)c2cccc(C(=O)Nc3cnc(Nc4ccc(S(=O)(=O)CCCN5CCCC5)cc4)nc3)c2)c1"
recorded_metric = "pIC50"
readout_number = 6.79

[[record]]
compound = "O=C(Nc1ccc(Cl)c(C(=O)Nc2cnc(Nc3cccc(S(=O)(=O)NCCN4CCCC4)c3)nc2)c1)c1cccc(C(F)(F)F)c1"
recorded_metric = "pIC50"
readout_number = 8.68

[[record]]
compound = "O=C(Nc1ccc(Cl)c(C(=O)Nc2cnc(Nc3cccnc3)nc2)c1)c1cccc(C(F)(F)F)c1 [drawing 211]"
recorded_metric = "pIC50"
readout_number = 8.27

[[record]]
compound = "O=C(Nc1ccc(Cl)c(C(=O)Nc2cnc(Nc3ccc(S(=O)(=O)C4CCNCC4)cc3)nc2)c1)c1cccc(Cl)c1"
recorded_metric = "pIC50"
readout_number = 7.94

[[record]]
compound = "O=C(Nc1ccc(Cl)c(NC(=O)c2cnc(Nc3ccc(OCCN4CCCC4)cc3)nc2)c1)c1cccc(C(F)(F)F)c1"
recorded_metric = "pIC50"
readout_number = 7.37

[[record]]
compound = "O=C(Nc1cccc(C(F)(F)F)c1)Nc1ccc(Cl)c(C(=O)Nc2cnc(Nc3ccc(OCCN4CCCC4)cc3)nc2)c1 [drawing 202]"
recorded_metric = "pIC50"
readout_number = 8.15

[[record]]
compound = "Cc1ccc(NC(=O)c2cccc(C(F)(F)F)c2)cc1C(=O)Nc1cnc(Nc2ccc(OCCN3CCCC3)cc2)nc1 [drawing 170]"
recorded_metric = "pIC50"
readout_number = 8.49

[[record]]
compound = "Cc1ccc(NC(=O)Nc2cccc(C(F)(F)F)c2)cc1C(=O)Nc1cnc(Nc2cccc(OCCN3CCCC3)c2)nc1"
recorded_metric = "pIC50"
readout_number = 7.14

[[record]]
compound = "O=C(Nc1ccc(Cl)c(C(=O)Nc2cnc(Nc3cccc(OCCN4CCCC4)c3)nc2)c1)c1cccc(C(F)(F)F)c1 [drawing 162]"
recorded_metric = "pIC50"
readout_number = 8.57

[[record]]
compound = "O=C(Nc1ccc(Cl)c(C(=O)Nc2cnc(Nc3ccc(OCCN4CCCC4)cc3)nc2)c1)c1cccc(C(F)(F)F)c1 [drawing 171]"
recorded_metric = "pIC50"
readout_number = 9.10

[[record]]
compound = "Cc1ccc(NC(=O)c2cccc(C(F)(F)F)c2)cc1C(=O)Nc1cnc(Nc2cccc(OCCN3CCCC3)c2)nc1 [drawing 163]"
recorded_metric = "pIC50"
readout_number = 7.86

[[record]]
compound = "CN1CCN(C(=O)c2ccc(Nc3ncc(NC(=O)c4cc(NC(=O)c5cccc(C(F)(F)F)c5)ccc4Cl)cn3)cc2)CC1"
recorded_metric = "pIC50"
readout_number = 8.64

[[record]]
compound = "Cc1ccc(Nc2nccc3ccccc23)cc1C(=O)Nc1cnc(Nc2cccc(OCCN3CCCC3)c2)nc1 [drawing 186]"
recorded_metric = "pIC50"
readout_number = 5.48

[[record]]
compound = "O=C(Nc1ccc(Cl)c(CNc2cnc(Nc3cccnc3)nc2)c1)c1cccc(C(F)(F)F)c1"
recorded_metric = "pIC50"
readout_number = 8.68

[[record]]
compound = "O=C(Nc1ccc(Cl)c(NC(=O)c2cnc(Nc3cccc(OCCN4CCCC4)c3)nc2)c1)c1cccc(C(F)(F)F)c1"
recorded_metric = "pIC50"
readout_number = 6.83


* * *

- SYSTEM_TESTED: Abl (Homo sapiens)
- Sequence (P00519 whole entry, species assumed): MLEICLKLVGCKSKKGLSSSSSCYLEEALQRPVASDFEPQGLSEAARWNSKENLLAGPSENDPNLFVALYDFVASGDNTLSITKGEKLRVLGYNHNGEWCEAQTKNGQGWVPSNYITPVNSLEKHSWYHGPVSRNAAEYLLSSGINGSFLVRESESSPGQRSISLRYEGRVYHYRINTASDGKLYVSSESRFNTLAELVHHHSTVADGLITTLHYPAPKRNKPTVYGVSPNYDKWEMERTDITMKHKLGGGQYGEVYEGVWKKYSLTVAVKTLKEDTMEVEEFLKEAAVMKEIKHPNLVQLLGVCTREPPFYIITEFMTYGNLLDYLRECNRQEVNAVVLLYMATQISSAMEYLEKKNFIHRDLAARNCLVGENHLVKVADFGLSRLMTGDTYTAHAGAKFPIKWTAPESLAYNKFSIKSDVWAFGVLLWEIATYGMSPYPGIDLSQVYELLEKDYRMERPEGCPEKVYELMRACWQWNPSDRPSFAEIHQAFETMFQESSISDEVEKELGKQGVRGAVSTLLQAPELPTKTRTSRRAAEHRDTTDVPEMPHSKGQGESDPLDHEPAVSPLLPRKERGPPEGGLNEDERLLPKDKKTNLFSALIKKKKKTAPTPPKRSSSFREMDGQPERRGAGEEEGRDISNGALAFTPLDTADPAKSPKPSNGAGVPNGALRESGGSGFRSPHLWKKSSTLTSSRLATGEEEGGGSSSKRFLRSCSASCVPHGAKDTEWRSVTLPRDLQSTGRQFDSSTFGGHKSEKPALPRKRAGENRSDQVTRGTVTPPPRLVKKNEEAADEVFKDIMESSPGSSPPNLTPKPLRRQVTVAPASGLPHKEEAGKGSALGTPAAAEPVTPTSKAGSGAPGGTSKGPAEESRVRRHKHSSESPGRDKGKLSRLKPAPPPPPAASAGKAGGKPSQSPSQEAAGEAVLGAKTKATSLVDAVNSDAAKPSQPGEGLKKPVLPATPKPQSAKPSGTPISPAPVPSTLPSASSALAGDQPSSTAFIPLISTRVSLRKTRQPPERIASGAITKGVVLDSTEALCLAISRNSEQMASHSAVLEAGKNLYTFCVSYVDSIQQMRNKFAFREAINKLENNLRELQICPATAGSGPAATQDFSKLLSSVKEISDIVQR
Cut-off 2 nM on IC50: below means True, at or above means False.

[[record]]
molecule = "O=C(Nc1ccc(Cl)c(C(=O)Nc2cnc(Nc3ccc(OCCN4CCCC4)cc3)nc2)c1)c1cccc(C(F)(F)F)c1 [drawing 230]"
class_assignment = "True"

[[record]]
molecule = "O=C(Nc1ccc(Cl)c(C(=O)Nc2cnc(Nc3ccc(S(=O)(=O)C4CCNCC4)cc3)nc2)c1)c1cccc(C(F)(F)F)c1 [drawing 228]"
class_assignment = "True"

[[record]]
molecule = "Cc1ccc(NC(=O)c2cccc(C(F)(F)F)c2)cc1C(=O)Nc1cnc(Nc2ccc(OCCN3CCCC3)cc2)nc1 [drawing 229]"
class_assignment = "False"

[[record]]
molecule = "O=C(Nc1ccc(Cl)c(C(=O)Nc2cnc(Nc3cccc(OCCN4CCCC4)c3)nc2)c1)c1cccc(C(F)(F)F)c1 [drawing 225]"
class_assignment = "True"

[[record]]
molecule = "O=C(Nc1cnc(Nc2cccc(OCCN3CCCC3)c2)nc1)c1cc(NC(=O)C(F)(F)F)ccc1Cl [drawing 227]"
class_assignment = "False"

[[record]]
molecule = "O=C(Nc1ccc(Cl)c(C(=O)Nc2cnc(Nc3ccc(CCCN4CCCC4)cc3)nc2)c1)c1cccc(C(F)(F)F)c1 [drawing 231]"
class_assignment = "False"

[[record]]
molecule = "Cc1ccc(NC(=O)C(F)(F)F)cc1C(=O)Nc1cnc(Nc2cccc(OCCN3CCCC3)c2)nc1 [drawing 232]"
class_assignment = "False"


* * *

- SYSTEM_TESTED: Lck (Homo sapiens, UniProt P06239)
- Sequence (P06239 whole entry): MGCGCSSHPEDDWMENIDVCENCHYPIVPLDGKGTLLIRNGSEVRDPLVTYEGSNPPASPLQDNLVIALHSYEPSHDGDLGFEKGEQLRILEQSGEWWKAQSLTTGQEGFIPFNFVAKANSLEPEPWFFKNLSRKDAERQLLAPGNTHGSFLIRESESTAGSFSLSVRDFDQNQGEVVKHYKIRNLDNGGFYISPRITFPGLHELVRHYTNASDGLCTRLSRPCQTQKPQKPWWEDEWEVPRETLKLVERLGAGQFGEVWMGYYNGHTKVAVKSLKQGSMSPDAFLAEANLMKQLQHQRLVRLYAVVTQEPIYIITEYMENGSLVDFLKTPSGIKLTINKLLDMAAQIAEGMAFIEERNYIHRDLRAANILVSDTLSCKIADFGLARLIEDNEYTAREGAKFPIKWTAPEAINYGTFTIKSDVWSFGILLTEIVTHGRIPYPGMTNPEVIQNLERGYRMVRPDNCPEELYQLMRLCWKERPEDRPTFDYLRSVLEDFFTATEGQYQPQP
Below, each entry is listed with its recorded log10 of IC50.
RECORDED_METRIC: log10 of IC50 (log10 of the value in nM)

[[record]]
molecule = "O=C(Nc1ccc(Cl)c(C(=O)Nc2cnc(Nc3ccc(OCCN4CCCC4)cc3)nc2)c1)c1cccc(C(F)(F)F)c1 [drawing 230]"
system_tested = "Lck (Homo sapiens, UniProt P06239)"
readout_number = 0.34

[[record]]
molecule = "O=C(Nc1ccc(Cl)c(C(=O)Nc2cnc(Nc3ccccc3)nc2)c1)c1cccc(C(F)(F)F)c1 [drawing 234]"
system_tested = "Lck (Homo sapiens, UniProt P06239)"
readout_number = 1.51

[[record]]
molecule = "O=C(Nc1ccc(Cl)c(C(=O)Nc2cnc(Nc3ccc(S(=O)(=O)C4CCNCC4)cc3)nc2)c1)c1cccc(C(F)(F)F)c1 [drawing 228]"
system_tested = "Lck (Homo sapiens, UniProt P06239)"
readout_number = 0.65

[[record]]
molecule = "O=C(Nc1ccc(Cl)c(C(=O)Nc2cnc(Nc3cccc(OCCN4CCCC4)c3)nc2)c1)c1cccc(C(F)(F)F)c1 [drawing 225]"
system_tested = "Lck (Homo sapiens, UniProt P06239)"
readout_number = 0.23

[[record]]
molecule = "O=C(Nc1cccc(C(F)(F)F)c1)Nc1ccc(Cl)c(C(=O)Nc2cnc(Nc3ccc(OCCN4CCCC4)cc3)nc2)c1 [drawing 237]"
system_tested = "Lck (Homo sapiens, UniProt P06239)"
readout_number = 1.35

[[record]]
molecule = "Cc1ccc(Nc2nccc3ccccc23)cc1C(=O)Nc1cnc(Nc2cccc(OCCN3CCCC3)c2)nc1 [drawing 236]"
system_tested = "Lck (Homo sapiens, UniProt P06239)"
readout_number = 2.49

[[record]]
molecule = "Cc1ccc(NC(=O)c2cccc(C(F)(F)F)c2)cc1C(=O)Nc1cnc(Nc2ccc(OCCN3CCCC3)cc2)nc1 [drawing 229]"
system_tested = "Lck (Homo sapiens, UniProt P06239)"
readout_number = 0.71

[[record]]
molecule = "Cc1ccc(NC(=O)c2cccc(C(F)(F)F)c2)cc1C(=O)Nc1cnc(Nc2cccc(OCCN3CCCC3)c2)nc1 [drawing 226]"
system_tested = "Lck (Homo sapiens, UniProt P06239)"
readout_number = 0.58


Reference for the values: patent US8030487B2
